- test_summary: Spectrophotometric determination of gentian violet residue in livers of chickens fed gentian violet (Examples 2 to 24)
- Format: in vivo
- measurement_context: chicken, liver, po, feed 35 ppm for 56 days, 12 hours after final dose, read-out: p.p.m. of Gentian Violet in liver
endpoint_name: concentration at 12 h (ng/g)
# unit: ng/g | format: bare number

Q. Entry CN(C)c1ccc(C(=C2C=CC(=[N+](C)C)C=C2)c2ccc(N(C)C)cc2)cc1 [gentian violet, hexamethylpararosaniline chloride] : reported concentration at 12 h = ?
A. 440

* * *

- test_summary: Spectrophotometric determination of gentian violet residue in livers of chickens fed gentian violet (Examples 2 to 24)
- Format: in vivo
- measurement_context: chicken, liver, po, feed 7 ppm for 56 days, 12 hours after final dose, read-out: p.p.m. of Gentian Violet in liver
endpoint_name: concentration at 12 h (ng/g)
Please state the figure in ng/g; there is no need to write the unit.

Q. What value of concentration at 12 h has been recorded for this entry: CN(C)c1ccc(C(=C2C=CC(=[N+](C)C)C=C2)c2ccc(N(C)C)cc2)cc1 [gentian violet, hexamethylpararosaniline chloride]
A. 120

// provenance: patent US4033721A
